molecular target: FXR (Homo sapiens); construct: using a full length FXR on a natural response element; expressed in transfected cells; test: cell-based transcription assay, FXR responsive promoter linked to a luciferase reporter; conditions: cell-based reporter assay
PROPERTY LABEL: FXR activation (in words)

// below: answered compounds
- COC(=O)/C=C/c1cccc(N(Cc2ccc(-c3c(OC)cccc3OC)cc2)C(=O)C2CCCCC2)c1: excellent activity
- COC(=O)/C=C/c1cccc(N(Cc2ccccc2)Cc2ccc3c(c2OC)OC(C)(C)C=C3)c1: inactive
- COC(=O)/C=C/c1cccc(N(Cc2ccc(-c3ccc(OC)cc3)cc2)C(=O)C(C)C)c1: excellent activity
- COC(=O)/C=C/c1cccc(N(Cc2ccc(-c3ccc4c(c3)OCO4)cc2)C(=O)C(C)C)c1: excellent activity
- COC(=O)/C=C/c1cccc(N(Cc2ccc(-c3cccc(Cl)c3)cc2)C(=O)C(C)C)c1: excellent activity
- COC(=O)/C=C/c1cccc(N(Cc2ccc(/C=C/c3cccc(Cl)c3)cc2)C(=O)C(C)C)c1: excellent activity

FXR activation (in words) measured on `COC(=O)/C=C/c1cccc(N(Cc2ccc3c(c2OC)OC(C)(C)C=C3)S(=O)(=O)c2ccc(C)cc2)c1` = inactive

Recorded result, `COC(=O)/C=C/c1cccc(N(Cc2ccc(/C=C/c3ccccc3)cc2)C(=O)C(C)C)c1` , FXR activation (in words): excellent activity

FXR activation (in words) for `COC(=O)/C=C/c1cccc(N(Cc2ccccc2)C(=O)C2CCCCC2)c1` is inactive

###

Measured pEC50 of individual entries
biological target: FXR (Homo sapiens, UniProt Q96RI1); construct: using a full length FXR on a natural response element; expressed in transfected cells; test: cell-based transcription assay, FXR responsive promoter linked to a luciferase reporter; conditions: Tables 1-15; FXR activation, cell-based reporter assay; read-out: EC50
Sequence (Q96RI1 whole entry, species assumed): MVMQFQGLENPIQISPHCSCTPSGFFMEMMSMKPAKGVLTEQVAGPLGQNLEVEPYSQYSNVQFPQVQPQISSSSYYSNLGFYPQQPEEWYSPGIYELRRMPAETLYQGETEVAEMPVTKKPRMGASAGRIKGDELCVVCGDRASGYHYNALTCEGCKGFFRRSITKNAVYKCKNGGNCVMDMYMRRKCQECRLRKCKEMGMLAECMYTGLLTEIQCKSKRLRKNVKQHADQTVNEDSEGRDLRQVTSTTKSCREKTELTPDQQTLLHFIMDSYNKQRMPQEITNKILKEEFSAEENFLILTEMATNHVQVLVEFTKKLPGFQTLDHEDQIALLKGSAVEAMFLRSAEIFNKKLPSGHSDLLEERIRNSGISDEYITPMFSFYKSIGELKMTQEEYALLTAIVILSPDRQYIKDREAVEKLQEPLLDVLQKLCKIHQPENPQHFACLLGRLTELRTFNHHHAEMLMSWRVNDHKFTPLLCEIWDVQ
pEC50: −log10 of the molar value.

Below are worked cases with known answers.
* COC(=O)C=Cc1cccc(N(Cc2ccc(C=CCOc3ccccc3)cc2)C(=O)C2CCCCC2)c1 [Compound 158] | < 6.00
* COC(=O)/C=C/c1cccc(N(Cc2ccc(-c3cccc(OC(F)(F)F)c3)cc2)C(=O)NC(C)C)c1 [Compound 255] | < 5.00

pEC50 recorded for this compound, COC(=O)/C=C/c1cccc(N(Cc2ccc(-c3cc(Cl)cc(Cl)c3)cc2)C(=O)NC(C)C)c1 [Compound 222] , is < 5.00
